Data provenance is the supplement of paper PMC12669032.

Test system: Clostridium difficile
Protocol notes: growth AUC relative to DMSO control (median of replicates) (fraction); higher = more growth (less inhibition), active = hit call of the paper
Reported conditions: 20 µM; 24 h
Quantity name: growth AUC
Number, no unit, nothing else.

What value of growth AUC has been recorded for this entry: `Clc1ccccc1Cl`
0.996

Name the recorded growth AUC for CCC(C)c1cc([N+](=O)[O-])cc([N+](=O)[O-])c1O (stereo unspecified) .
0.951

# query: growth AUC of entry `CCOP(=S)(OCC)Oc1cc(C)nc(N(CC)CC)n1`
1

Request the reported growth AUC associated with CCC1(C(=O)NC(C)c2ccc(Cl)cc2)C(C)C1(Cl)Cl (stereo unspecified)
0.969

What value of measured growth AUC is listed for `COP(=S)(OC)Oc1ccc(C#N)cc1` ?
1.03

growth AUC for Cc1ccccc1CO[C@@H]1C[C@@]2(C(C)C)CC[C@]1(C)O2 (mixture of isomers) ?
1.04

So what's the measured growth AUC for this one? `Oc1ccc(C(c2ccc(O)cc2)(C(F)(F)F)C(F)(F)F)cc1`
0.966

Please report the recorded growth AUC for `CCNc1nc(NC(C)C)nc(SC)n1` .
0.999

// query growth AUC value for entry `CCN(CC)C(=S)[S-].O.O.O.[Na+]`
1.04

Sample CC(CCl)OP(=O)(OC(C)CCl)OC(C)CCl (mixture of isomers) — what was its growth AUC?
1.02

Field request: growth AUC | item: `CCCCNC(=O)n1c(NC(=O)OC)nc2ccccc21`
0.955

====

Tested on: Parabacteroides merdae
Protocol notes: growth AUC relative to DMSO control (median of replicates) (fraction); higher = more growth (less inhibition), active = hit call of the paper
Reported conditions: 20 µM; 24 h
Quantity name: growth AUC
API doc: respond with a numeric literal and nothing else, no unit.

Quick one: growth AUC for `O.[Br-].[Br-].c1cc[n+]2c(c1)-c1cccc[n+]1CC2` ?
0.967

Give its growth AUC value. Item: `CCCOc1nn(C(=O)[N-]S(=O)(=O)c2ccccc2C(=O)OC)c(=O)n1C.[Na+]`
0.999

I would be grateful if you could share the reported growth AUC for `COP(=O)(OC)O/C(=C/Br)c1ccc(Cl)cc1Cl` .
0.963

I would be grateful if you could share the reported growth AUC for `Oc1ccc(Cl)c(Cl)c1Cl` .
1.06

Fill in: growth AUC of `CNC(=O)c1cc(Cl)cc(C)c1NC(=O)c1cc(Br)nn1-c1ncccc1Cl` is ___
0.98

Could you tell me which growth AUC is on file for `CCCCc1c(C)nc(NCC)nc1OS(=O)(=O)N(C)C` ?
0.906

GET /values?readout=growth AUC&item= `COP(=S)(OC)Oc1ccc([N+](=O)[O-])cc1`
0.964

Name the reported growth AUC value associated with the compound `CCCCN(CC)C(=O)SCCC`
1.02

Entry `CCCN(CCOc1c(Cl)cc(Cl)cc1Cl)C(=O)n1ccnc1` : reported growth AUC = ?
0.843

Suppose we examine the compound `CN(C)C(CSS(=O)(=O)c1ccccc1)CSS(=O)(=O)c1ccccc1` ; what growth AUC value has been reported?
0.992

I'd like to know its growth AUC. The compound in question is `CCNc1nc(Cl)nc(NC(C)(C)C#N)n1`
1.01

Query: growth AUC; subject: CCNc1nc(NC(C)C(C)C)nc(SC)n1 (configuration not stated)
0.992

====

Exercise: state measured growth AUC for each of the compounds provided.
Test system: Collinsella aerofaciens
Protocol notes: growth AUC relative to DMSO control (median of replicates) (fraction); higher = more growth (less inhibition), active = hit call of the paper
Reported conditions: 20 µM; 24 h
Output spec: single numeric token, no unit.

Look at this compound and give its reported growth AUC. CCS(=O)Cc1ccccc1OC(=O)NC (stereo unspecified)
0.977

For the compound `CCCN(CCC)c1c([N+](=O)[O-])cc(S(N)(=O)=O)cc1[N+](=O)[O-]` , what growth AUC is on record?
0.975

What measured growth AUC goes with `O=C(O)COc1cc(Cl)c(Cl)cc1Cl` ?
1.07

I have this compound here, `CCNc1nc(Cl)nc(NC(C)(C)C#N)n1` , and I need its recorded growth AUC.
0.997

Given the entry `N#Cc1c(O)c(Cl)c(Cl)c(C#N)c1Cl` , report its measured growth AUC.
0.985

growth AUC lookup needed for `CNC(=O)Oc1cccc2c1OC(C)(C)C2` , thanks.
1.04

// lookup growth AUC for `COc1cc(OC)nc(Sc2cccc(Cl)c2C(=O)O)n1`
0.964

Which value of growth AUC has been reported for `CCCN(CCC)c1c([N+](=O)[O-])cc(C(C)C)cc1[N+](=O)[O-]` in the records?
0.99

Would you mind telling me what growth AUC value was observed for CCCCC(O)(Cn1cncn1)c1ccc(Cl)cc1Cl (stereo unspecified) ?
1

Bench note: what growth AUC did CCC(C)Nc1c([N+](=O)[O-])cc(C(C)(C)C)cc1[N+](=O)[O-] (stereo unspecified) show?
0.959

Tell me the measured growth AUC of `CCCN(CCC)c1c([N+](=O)[O-])cc(S(C)(=O)=O)cc1[N+](=O)[O-]` , please.
0.914

====

What growth AUC was measured for each of the following?
Test system: Clostridium difficile
Protocol notes: growth AUC relative to DMSO control (median of replicates) (fraction); higher = more growth (less inhibition), active = hit call of the paper
Reported conditions: 20 µM; 24 h
Answer with a number only.

Entry `O=[N+]([O-])c1cc(C(F)(F)F)c(Cl)c([N+](=O)[O-])c1Nc1ncc(C(F)(F)F)cc1Cl` : reported growth AUC = ?
0.914

Fill blank: measured growth AUC of the compound COP(=S)(NC(C)C)Oc1ccccc1C(=O)OC(C)C (stereo not given) is ____.
1.01

Returns the measured growth AUC for the input compound. Input: CCOP(=S)(OCC)SCCS(=O)CC (stereo not given)
0.967

Could you tell me which growth AUC is on file for `CC1(C)[C@H](/C=C(\Cl)C(F)(F)F)[C@@H]1C(=O)O[C@@H](C#N)c1cccc(Oc2ccccc2)c1` ?
0.988

Dear colleague, I am looking for the recorded growth AUC of the following compound: O=c1oc2ccccc2c(O)c1C1CC(c2ccc(OCc3ccc(C(F)(F)F)cc3)cc2)Cc2ccccc21 (mixture of isomers)
0.0158

I have this compound here, `CS(=O)(=O)c1ccc(C(=O)C2C(=O)CCCC2=O)c([N+](=O)[O-])c1` , and I need its recorded growth AUC.
0.986

For the compound shown here, `COc1nc(NC(C)C)nc(NC(C)C)n1` , give the reported growth AUC.
0.98

Returns the measured growth AUC for the input compound. Input: CCC(C)c1ccccc1OC(=O)NC (stereo not given)
1

Name the reported growth AUC value associated with the compound `O=[N+]([O-])c1ccc(Oc2ccc(C(F)(F)F)cc2[N+](=O)[O-])cc1`
1.02

Data request, read-out growth AUC, for `COc1ccc(/C(=C/C(=O)N2CCOCC2)c2ccc(Cl)cc2)cc1OC`
0.932

====

Tested on: Bacteroides clarus
Protocol notes: growth AUC relative to DMSO control (median of replicates) (fraction); higher = more growth (less inhibition), active = hit call of the paper;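 active = AUC reduced over 20% with Padj below 0.05 in at least 2 of 3 replicates; inactive = otherwise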
Reported conditions: 20 µM; 24 h
Respond with a class label; see active, inactive

Record lookup: outcome of this test for COP(=S)(NC(C)C)Oc1ccccc1C(=O)OC(C)C (stereo not drawn) ?
inactive

Hi, sorry to bother you, what did the test record for `Oc1ccccc1-c1ccccc1` ?
inactive

Recorded call for CC(Oc1ccc(Oc2ncc(C(F)(F)F)cc2Cl)cc1)C(=O)O (stereo not drawn) ?
inactive

Kindly provide the recorded test outcome for the following compound: `CC(C)N(Cc1ccccc1)C(=O)C(C)(C)C`
inactive

Would you mind telling me which call this test gave `Oc1cc(Cl)cc(Cl)c1` ?
inactive

Test call, this compound: `CNC(=O)Oc1cc(C)c(S(C)(=O)=O)c(C)c1`
inactive

Which outcome was entered for the compound `CO/N=C(/C(=O)OC)c1ccccc1COc1ccccc1C` in this test?
inactive

What did this assay record as the result for ClC1=C(Cl)C2(Cl)C3C(Cl)C=CC3C1(Cl)C2(Cl)Cl (stereo not drawn) ?
inactive

Hi, do you know how CC(=O)CC(c1ccc(Cl)cc1)c1c(O)c2ccccc2oc1=O (stereo not drawn) came out in this test?
inactive

Per the assay record, what outcome was assigned to `CCN(CC)c1c([N+](=O)[O-])cc(C(F)(F)F)c(N)c1[N+](=O)[O-]` ?
inactive

Could you please tell me the result logged for `CNC(=O)CSP(=S)(OC)OC` in this assay?
inactive

Any idea what this test logged for CCC(C)c1cc([N+](=O)[O-])cc([N+](=O)[O-])c1OC(=O)C=C(C)C (stereo not drawn) ?
active

Write down the call the test reported for this compound. Item: `C[C@@H](Oc1ccc(Oc2cnc3cc(Cl)ccc3n2)cc1)C(=O)O`
inactive

Answer briefly: the call reported for `CC1(C)[C@H](C=C(Cl)Cl)[C@H]1C(=O)OCc1c(F)c(F)cc(F)c1F` in this assay.
inactive

Could you please tell me the result logged for `NC(=O)/N=C1/SCCN1Cc1ccc(Cl)nc1` in this assay?
inactive

Name the outcome recorded for `CCCCOC(=O)c1ccccc1C(=O)OCCCC` in the assay.
inactive

For this compound, state the assay outcome: `CS(=O)(=O)c1ccc(C(=O)C2C(=O)CCCC2=O)c([N+](=O)[O-])c1`
inactive

Hi, sorry to bother you, what did the test record for `O=C(O)CCl` ?
inactive

Could you kindly confirm the outcome this assay logged for `COP(=S)(OC)Oc1ccc([N+](=O)[O-])c(C)c1` ?
inactive

Returns: the outcome recorded for `CCCOCC(=Nc1ccc(Cl)cc1C(F)(F)F)n1ccnc1` in this assay.
inactive

Fill in: this test's call for `COC(=O)c1sccc1S(=O)(=O)NC(=O)Nc1nc(C)nc(OC)n1` is ___
inactive

Recorded test outcome, item CC(Oc1cc(Cl)c(Cl)cc1Cl)C(=O)O (stereo not drawn)
inactive

What is the recorded call for this compound in the test? `CS(=O)(=O)c1ccc(C(=O)C2C(=O)CCCC2=O)c(Cl)c1`
inactive
